Source of measurements: the nanobody polyreactivity screen of Harvey et al. (2022)

- assay-name: yeast display, Sf9 membrane polyspecificity reagent, FACS + sequencing; frameworks hold sequencing errors
quantity-measured: polyreactivity (PSR sort gate)

Here is how some sequences turned out for polyreactivity (PSR sort gate).
>>> assay_result("QVQLVESGGGLVQAGGSLRLSCAASGRIFRVNAMGWYRQAPGKERELVASITKSTGSTYYADSVKGRFTISRDNAKNTVYLQMNSLKPEDTAVYYCAKAASYPVRAFYYWGQGTQVTVSS")
"high polyreactivity"
>>> assay_result("QGQLVESGGGLVQAGGSIRLSCAASGYIFRRYAMGWYRQAPGKEREFVATISRSGGSTYYADSVKGRFTISRDNAKNTVYLQMNSLKPEDTAVYYCNAGYGYGYPKYDYWGQCTQVTVSS")
"high polyreactivity"
>>> assay_result("QVQLVESGGGLVQAGGSLRLSCAASGFTFERYTMGWYRPAPGKERELVATISRRSGRTSYADSVKGRFTISRDNAKNTVYLQMNSLKPEDTAVYYCAVDDAYPDRYDYWGQGTQVTVSS")
"high polyreactivity"
>>> assay_result("QVQLVESAGGLVQAGGSLPLSCAASGFTFISNAMGWYRQSPAKERELVAAISSSGGRTYYAVSVKGRFTISRDNAKNTVYLQMNSVKPEDTAVYYSNADRSLLYSRKIEYDYWGQGTKVTVSS")
"low polyreactivity"
>>> assay_result("QVQLVESGGGLVQAGGSLLLSCAASGFIFDYNAMGGYRPAPGKETELVAAISRSGGSTYADSVKGRFTFSRDNAMNTVYLQMNSLKPEDTAVYYCAADILSRSRSRRVDYWGQGTQVTVSS")
"low polyreactivity"
>>> assay_result("QVQLVESGGGLVHAGGSIRLSCAASGRIFPAYAMGWYRQAPGKERELVASIRRGGITYADSVKGRFTISRDNAKNTVYLQMNSLKPEDTAVYYCNADYRGWVYHMDYWGQGTQVTVSS")
"low polyreactivity"

Ask: Answer with the recorded polyreactivity (PSR sort gate) of `QVQLVESGGGLVQAGGSLRLSCAASGSIFGWYAMGWYRQAPGKERELVAAIDSATSTDYADSVKGRFTISRDNAKNTVYLQMNSLKPEDTAFYYCAVYSCWIDAEYDYWGQGTQVTGSS` only.
Result: low polyreactivity

Ask: Output measured polyreactivity (PSR sort gate) for this item: `QVQLVESGGGLVQAGGSLRLSCAASGRSFTSNTMGWYRPAPGKERELVAAITSSGGSMYYADSVKGRFTISRDNANNTVYLQMNSLKPEDTAVYYCAADTIGYHYWYDYWGQGTQVTVSS`
Result: low polyreactivity

Ask: Return the recorded polyreactivity (PSR sort gate) value; entry: `QVQLVESGGGLVQAGGSLRLSCAASGLILVPNTMGWYRQAPGKARELVAAISYSGGGTYYADSVKGRFTISRDNAKNTVYLQMNSLKPEDTAVYYCAAYDKRESAPYGYWGQGTQVTVSS`
Result: low polyreactivity

Ask: Specify measured polyreactivity (PSR sort gate) for `QVQLVESGGGLVQAGGSLRLSCAASGFTFSINAMGWYRQAPGKERELVASITWSGGRTYYADSVKGRFTISRDNAKNTVYLQMNSLKPEDTAVYYCAARSYGTSTYDYWGQGTQETVSS` .
Result: high polyreactivity

Ask: For the sequence `QVQLVESGGGLVQAGGSLRLSSAASGFIFEDYAMGWYREAPGKARELFAAISRRGGSTYYADSVKGRFTISRDNAQNTVYLQMNSLKPEDTADYYCAARKRYRPGERYEYWGQGTQVTVSS` , report polyreactivity (PSR sort gate).
Result: high polyreactivity
